In this section, each of the compounds is paired with its reported pKd.
Assay Target: MERS-CoV spike protein (S1 subunit, His tag) (Middle East respiratory syndrome-related coronavirus, UniProt K9N5Q8)
Sequence (K9N5Q8 18-751 limits assumed): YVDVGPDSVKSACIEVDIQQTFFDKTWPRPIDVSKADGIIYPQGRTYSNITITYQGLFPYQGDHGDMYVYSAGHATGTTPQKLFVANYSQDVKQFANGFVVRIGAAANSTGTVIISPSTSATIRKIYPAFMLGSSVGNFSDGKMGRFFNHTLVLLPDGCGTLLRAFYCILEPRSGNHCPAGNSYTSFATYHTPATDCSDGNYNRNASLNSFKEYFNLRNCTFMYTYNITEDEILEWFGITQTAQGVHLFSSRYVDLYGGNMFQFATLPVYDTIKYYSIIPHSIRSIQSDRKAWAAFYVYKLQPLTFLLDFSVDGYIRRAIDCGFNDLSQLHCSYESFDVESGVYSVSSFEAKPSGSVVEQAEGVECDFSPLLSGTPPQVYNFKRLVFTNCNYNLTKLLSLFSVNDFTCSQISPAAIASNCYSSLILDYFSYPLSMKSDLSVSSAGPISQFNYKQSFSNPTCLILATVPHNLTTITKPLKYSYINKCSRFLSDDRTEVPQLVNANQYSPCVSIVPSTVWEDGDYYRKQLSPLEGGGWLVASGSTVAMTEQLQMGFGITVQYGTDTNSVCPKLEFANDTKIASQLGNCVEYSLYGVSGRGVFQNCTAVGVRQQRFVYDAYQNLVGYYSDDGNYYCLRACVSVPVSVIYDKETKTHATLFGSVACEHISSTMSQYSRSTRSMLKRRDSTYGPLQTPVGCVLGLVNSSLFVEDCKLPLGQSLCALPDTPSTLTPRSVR
Assay Procedure: biochemical
pKd: −log10 of the molar value.

| Compound | pKd |
| --- | --- |
| CC(C)=CCC[C@](C)(O[C@@H]1O[C@H](CO[C@@H]2O[C@H](CO)[C@@H](O)[C@H](O)[C@H]2O)[C@@H](O)[C@H](O)[C@H]1O)[C@H]1CC[C@]2(C)[C@@H]1[C@H](O)C[C@@H]1[C@@]3(C)CC[C@H](O[C@@H]4O[C@H](CO)[C@@H](O)[C@H](O)[C@H]4O[C@@H]4O[C@H](CO)[C@@H](O)[C@H](O)[C@H]4O)C(C)(C)[C@@H]3CC[C@]12C [ZZY-9, Ginsenoside Rb1] | 5.46 |
| COc1ccc2cc3[n+](cc2c1OC)CCc1cc2c(cc1-3)OCO2 [ZZY-54, Berberine Chloride] | 5.13 |
| CC1(C)[C@@H](O[C@H]2O[C@H](C(=O)O)[C@@H](O)[C@H](O)[C@H]2O[C@@H]2O[C@H](C(=O)O)[C@@H](O)[C@H](O)[C@H]2O)CC[C@]2(C)[C@H]3C(=O)C=C4[C@@H]5C[C@@](C)(C(=O)O)CC[C@]5(C)CC[C@@]4(C)[C@]3(C)CC[C@@H]12 | 6.33 |
| CC(C)=CCC[C@](C)(O[C@@H]1O[C@H](CO[C@@H]2OC[C@@H](O)[C@H](O)[C@H]2O)[C@@H](O)[C@H](O)[C@H]1O)[C@H]1CC[C@]2(C)[C@@H]1[C@H](O)C[C@@H]1[C@@]3(C)CC[C@H](O[C@@H]4O[C@H](CO)[C@@H](O)[C@H](O)[C@H]4O[C@@H]4O[C@H](CO)[C@@H](O)[C@H](O)[C@H]4O)C(C)(C)[C@@H]3CC[C@]12C [ZZY-13, Ginsenoside Rb3] | 6.60 |
